# PROCEDURE TEXT: qHTS of pediatric cancer cell lines to identify multiple opportunities for drug repurposing: Primary screen for TC32 cells (AID 1347089); note: nearly all actives have a fitted effect of over 60% in size
# CONDITIONS USED: TC32 Ewing sarcoma viability, CellTiter-Glo luminescence, 48 h; series mostly up to 45.8 µM
Results filed as inconclusive are left out. Active and inactive are the calls of the source. Calls come from the whole dose curve; as a rule, active = well fitted cell-killing curve with a large enough effect; inconclusive = small, poorly fitted or top-dose-only effect; inactive = flat fitted curve, though single readings scatter.
Classes to choose from: active, inactive

Worked cases, answers included:
Q. # fetch the recorded call for CC(C)C(C)C=CC(C)C1CCC2C3=CC=C4CC(O)CCC4(C)C3CCC21C (stereo not given) here
A. inactive

Q. Please indicate how the test categorized "COc1cc(O)c2c(c1)C(=O)c1cc(C)cc(O)c1C2=O" .
A. inactive

Continuing:
Q. Write down the call the test reported for this compound. Item: "CN(C)Cc1ccc(-c2nc3cccc4c3n2CCNC4=O)cc1"
A. inactive

Q. Short answer needed: outcome of this test for "CCc1ccc(C=C2SC(=S)NC2=O)cc1" ?
A. inactive

Q. Which outcome was entered for the compound "O=C(Nc1ccccc1Br)N[C@@H]1CCN(c2ccc(C(F)(F)F)cn2)C1" in this test?
A. inactive

Data credit: PubChem BioAssay (NCATS)
